Attribute: polymerase ribozyme fitness (log ratio)
B1: TPR t1 (parent)
chain: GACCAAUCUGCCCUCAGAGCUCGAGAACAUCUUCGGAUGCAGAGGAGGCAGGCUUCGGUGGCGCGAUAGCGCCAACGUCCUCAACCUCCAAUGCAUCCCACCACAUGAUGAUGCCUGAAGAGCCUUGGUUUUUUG

Variants of: B1
Assay: polymerase ribozyme fitness, log enrichment relative to wild type (log ratio); higher = more active; in vitro selection for triplet polymerase activity
Give the figure by itself; no unit, no explanation.

In: Reported polymerase ribozyme fitness (log ratio) for GACCAAUCUGCCCUCAGAGCUCGAGAACAUCUUCGGAUGCAGAGGAGGCAGGCUUCGGUGGCCCGAUAGCGCCAACGUCCUCAACCUCCAAUGCAUGCCACCACAUGAUGAUGCCUGAAGAGCCUUGGUUUUUUG [G63C C97G] : what is it?
Out: -4.59

In: What polymerase ribozyme fitness (log ratio) value was documented for this variant, GACCAAUCUGCCCUGAGAGCUCGAGAACAUCUUCGGAUGCAGAGGAGGCAGGCUACGGUGGCGCGAUAGAGCCAACGUCCUCUACCUCCAAUGCAUUCCACCACAUGAUGAUGCCUGAAGAGCCUUGGUCUUUUG [C15G U55A C70A A83U C97U U130C] ?
Out: -5.79

Values compiled from the RNAGym collection of RNA variant scans (doi:10.1073/pnas.2313332121).
